Test system: ZR-75-1 Tam2
ASSAY EXPLANATION: relative IC50 (midpoint of fitted logistic curve, plateau may be below 50% inhibition; CellTiter-Glo viability); higher = less potent
SETTINGS: 4-OH-tamoxifen in medium 1 µM; 72 h

| COMPOUND | READOUT UNIT | QUALIFIER SYMBOL | relative IC50 |
| --- | --- | --- | --- |
| COc1ccc(-c2cc3c(C)nc(N)nc3n([C@H]3CC[C@H](OCCO)CC3)c2=O)cn1 | nM | = | 52.5 |
| CC(C)(C)NC(=O)[C@H]1CC[C@H]2[C@@H]3CC[C@H]4NC(=O)C=C[C@]4(C)[C@H]3CC[C@]12C [Finasteride] | nM | > | 10000 |
| Cc1ccc(NC(=O)c2ccc(CN3CCN(C)CC3)cc2)cc1Nc1nccc(-c2cccnc2)n1 | nM | > | 10000 |
| CC(C)c1c(C(=O)Nc2ccccc2)c(-c2ccccc2)c(-c2ccc(F)cc2)n1CC[C@@H](O)C[C@@H](O)CC(=O)O | nM | = | 1430 |
| CC(C)C[C@H](NC(=O)[C@H](CCc1ccccc1)NC(=O)CN1CCOCC1)C(=O)N[C@@H](Cc1ccccc1)C(=O)N[C@@H](CC(C)C)C(=O)[C@@]1(C)CO1 | nM | = | 51.9 |
| CO[C@H]1/C=C\C=C(/C)C(=O)NC2=CC(=O)C(NCCN(C)C)=C(C[C@@H](C)C[C@H](OC)[C@H](O)[C@@H](C)/C=C(\C)[C@@H]1OC(N)=O)C2=O | nM | = | 71 |
| COc1cc(Nc2c(C#N)cnc3cc(OCCCN4CCN(C)CC4)c(OC)cc23)c(Cl)cc1Cl | nM | = | 3190 |
| COc1cccc2c1C(=O)c1c(O)c3c(c(O)c1C2=O)C[C@@](O)(C(C)=O)C[C@@H]3O[C@H]1C[C@H](N)[C@H](O)[C@H](C)O1 | nM | = | 150 |
| O=P1(N(CCCl)CCCl)NCCCO1 (centres undefined) [Clafen (Cyclophosphamide, Endoxan)] | nM | > | 40000 |
| CC(C)C[C@H](NC(=O)[C@H](Cc1ccccc1)NC(=O)c1cnccn1)B(O)O | nM | = | 8.96 |
| O=C(CCCCCCC(=O)Nc1ccccc1)NO | nM | = | 2270 |
| CCCC(CCC)C(=O)O | nM | > | 10000 |
| Cn1cc(C2=C(c3cn(C4CCN(Cc5ccccn5)CC4)c4ccccc34)C(=O)NC2=O)c2ccccc21 | nM | > | 10000 |
| CC(=O)O[C@@]12CO[C@@H]1C[C@H](O)[C@@]1(C)C(=O)[C@H](O)C3=C(C)[C@@H](OC(=O)[C@H](O)[C@@H](NC(=O)OC(C)(C)C)c4ccccc4)C[C@@](O)([C@@H](OC(=O)c4ccccc4)[C@H]21)C3(C)C | nM | > | 1000 |

* * *

Test system: T-47D Tam2
ASSAY EXPLANATION: relative IC50 (midpoint of fitted logistic curve, plateau may be below 50% inhibition; CellTiter-Glo viability); higher = less potent
SETTINGS: 4-OH-tamoxifen in medium 1 µM; 72 h
Entries annotated with measured relative IC50
QUANTITY MEASURED: relative IC50

| COMPOUND | QUANTITY MEASURED | READING |
| --- | --- | --- |
| COc1cc([C@@H]2c3cc4c(cc3[C@@H](O[C@@H]3O[C@@H]5CO[C@@H](C)O[C@H]5[C@H](O)[C@H]3O)[C@H]3COC(=O)[C@H]23)OCO4)cc(OC)c1O [Etoposide] | relative IC50 | > 10 µM |
| C/C(=C\c1csc(C)n1)[C@@H]1C[C@@H]2O[C@]2(C)CCC[C@H](C)[C@H](O)[C@@H](C)C(=O)C(C)(C)[C@@H](O)CC(=O)N1 [Ixabepilone] | relative IC50 | 0.229 µM |
| S=P(N1CC1)(N1CC1)N1CC1 | relative IC50 | > 100 µM |

* * *

Entries annotated with measured viability inhibition at highest dose
Tested on: MCF-7 Tam1
ASSAY EXPLANATION: viability inhibition at highest dose (% inhibition); higher = more growth inhibition
SETTINGS: 4-OH-tamoxifen in medium 1 µM; 72 h

| COMPOUND | viability inhibition at highest dose |
| --- | --- |
| CO[C@H](C(=O)[C@@H](O)[C@@H](C)O)[C@@H]1Cc2cc3cc(O[C@H]4C[C@@H](O[C@@H]5C[C@@H](O)[C@H](O)[C@@H](C)O5)[C@H](O)[C@@H](C)O4)c(C)c(O)c3c(O)c2C(=O)[C@H]1O[C@H]1C[C@@H](O[C@@H]2C[C@@H](O)[C@@H](O[C@@H]3C[C@](C)(O)[C@H](O)[C@@H](C)O3)[C@@H](C)O2)[C@H](O)[C@@H](C)O1 [Plicamycin (Mithramycin A)] (drug 10000 nM) | 77.5 |
| Cc1cc(C(C)Nc2ccccc2)c2nc(N3CCOCC3)cc(=O)n2c1 (configuration not stated) [TGX-221] (drug 10000 nM) | 9.33 |
| Oc1ccc2c(c1)CC[C@H](c1ccccc1)[C@@H]2c1ccc(OCCN2CCCC2)cc1 [Lasofoxifene] (drug 1000 nM) | -2.47 |
| CC(C)n1nc(-c2ccc3oc(N)nc3c2)c2c(N)ncnc21 [INK128] (drug 1000 nM) | 35.9 |
| CN(Cc1cnc2nc(N)nc(N)c2n1)c1ccc(C(=O)N[C@@H](CCC(=O)O)C(=O)O)cc1 [Methotrexate] (drug 10000 nM) | 14.2 |
| Cc1ccc(Nc2nccc(N(C)c3ccc4c(C)n(C)nc4c3)n2)cc1S(N)(=O)=O [Pazopanib] (drug 10000 nM) | 1.65 |
| CC[C@H](CO)Nc1nc(NCc2ccccc2)c2ncn(C(C)C)c2n1 [Seliciclib (Roscovitine)] (drug 10000 nM) | 13.8 |
| CC1(C)CCC(c2ccc(Cl)cc2)=C(CN2CCN(c3ccc(C(=O)NS(=O)(=O)c4ccc(N[C@H](CCN5CCOCC5)CSc5ccccc5)c(S(=O)(=O)C(F)(F)F)c4)cc3)CC2)C1 [Navitoclax (ABT-263)] (drug 10000 nM) | 5 |
| CC[C@H](Nc1ncnc2[nH]cnc12)c1nc2cccc(F)c2c(=O)n1-c1ccccc1 [CAL-101] (drug 10000 nM) | -0.638 |
| CC(=O)Nc1cccc(-n2c(=O)n(C3CC3)c(=O)c3c(Nc4ccc(I)cc4F)n(C)c(=O)c(C)c32)c1 (drug 250 nM) | 10.6 |
| Cc1ccc(C(=O)N(CCCN)[C@@H](c2oc3cc(Cl)ccc3c(=O)c2Cc2ccccc2)C(C)C)cc1 (drug 100 nM) | -9.67 |
| O=P(O)(O)C(O)(Cn1ccnc1)P(=O)(O)O [Zoledronic acid] (drug 10000 nM) | -6.7 |

* * *

Test system: BT-474
ASSAY EXPLANATION: viability inhibition at highest dose (% inhibition); higher = more growth inhibition
SETTINGS: 4-OH-tamoxifen in medium 0 µM; 72 h
Structures can show the parent of a compound that is named as a salt.
Entries annotated with measured viability inhibition at highest dose
QUANTITY MEASURED: viability inhibition at highest dose

| MOLECULE | QUANTITY MEASURED | READING |
| --- | --- | --- |
| C[C@@H]1C[C@H]2[C@@H]3CCC4=CC(=O)C=C[C@]4(C)[C@@]3(F)[C@@H](O)C[C@]2(C)[C@@]1(O)C(=O)CO [Dexamethasone (Decadron)] (drug 10000 nM) | viability inhibition at highest dose | -8.58 |
| O=C(c1ccc(OCCN2CCCCC2)cc1)c1c(-c2ccc(O)cc2)sc2cc(O)ccc12 [Raloxifene HCl] (drug 10000 nM) | viability inhibition at highest dose | 22.8 |
| Oc1ncnc2[nH]ncc12 [Allopurinol] (drug 10000 nM) | viability inhibition at highest dose | 2.31 |
| CO[C@H](C(=O)[C@@H](O)[C@@H](C)O)[C@@H]1Cc2cc3cc(O[C@H]4C[C@@H](O[C@@H]5C[C@@H](O)[C@H](O)[C@@H](C)O5)[C@H](O)[C@@H](C)O4)c(C)c(O)c3c(O)c2C(=O)[C@H]1O[C@H]1C[C@@H](O[C@@H]2C[C@@H](O)[C@@H](O[C@@H]3C[C@](C)(O)[C@H](O)[C@@H](C)O3)[C@@H](C)O2)[C@H](O)[C@@H](C)O1 [Plicamycin (Mithramycin A)] (drug 10000 nM) | viability inhibition at highest dose | 67.7 |
| O=C(/C=C/c1cccc(S(=O)(=O)Nc2ccccc2)c1)NO [Belinostat (PXD101)] (drug 10000 nM) | viability inhibition at highest dose | 91.3 |
| O=P(O)(O)C(O)(Cn1ccnc1)P(=O)(O)O [Zoledronic acid] (drug 10000 nM) | viability inhibition at highest dose | -0.0303 |
| Cn1c(Nc2ccc(C(F)(F)F)cc2)nc2cc(Oc3ccnc(-c4ncc(C(F)(F)F)[nH]4)c3)ccc21 [RAF265] (drug 1000 nM) | viability inhibition at highest dose | -9.23 |
| O=C(CCBr)N1CCN(C(=O)CCBr)CC1 [Pipobroman] (drug 10000 nM) | viability inhibition at highest dose | -11.7 |
| CO[C@H]1C[C@@H]2CC[C@@H](C)[C@@](O)(O2)C(=O)C(=O)N2CCCC[C@H]2C(=O)O[C@H]([C@H](C)C[C@@H]2CC[C@@H](OCCO)[C@H](OC)C2)CC(=O)[C@H](C)/C=C(\C)[C@@H](O)[C@@H](OC)C(=O)[C@H](C)C[C@H](C)/C=C/C=C/C=C/1C [Everolimus] (drug 100 nM) | viability inhibition at highest dose | 15.8 |
| CC(C)C[C@H](NC(=O)[C@H](CCc1ccccc1)NC(=O)CN1CCOCC1)C(=O)N[C@@H](Cc1ccccc1)C(=O)N[C@@H](CC(C)C)C(=O)[C@@]1(C)CO1 [Carfilzomib] (drug 1000 nM) | viability inhibition at highest dose | 79.9 |
| CC1(C)NC(=O)N(c2ccc([N+](=O)[O-])c(C(F)(F)F)c2)C1=O [Nilutamide] (drug 10000 nM) | viability inhibition at highest dose | -2.3 |
| Nc1ccccc1NC(=O)c1ccc(CNc2nccc(-c3cccnc3)n2)cc1 [Mocetotinostat (MGCD0103)] (drug 10000 nM) | viability inhibition at highest dose | 65.7 |
| Cn1cc(CNCC2CCN(c3ncc(C(=O)NO)cn3)CC2)c2ccccc21 (drug 1000 nM) | viability inhibition at highest dose | 88.3 |

Value source: the supplement of paper PMC4932681
